Provenance of the data: patent US8648090B2

So I've got a bunch of molecules here, and I need their Relative Potency (%) values.
- Test system: guinea pig ileum
- assayText: Twitch contraction induced by electrical stimulation in guinea pig isolated ileum (Magnus assay)
- conditionInfo: against morphine (100)
One number for each entry, in %.

Past entries and their recorded results:
CC[C@@H]1CN2CC[C@@]34OCCO[C@@]3(Nc3ccc(F)c(OC)c34)[C@@H]2C[C@@H]1/C(=C\OC)C(=O)OC = 1778
CC[C@@H]1CN2CC[C@@]34OCCO[C@@]3(Nc3ccc([N+](=O)[O-])c(OC)c34)[C@@H]2C[C@@H]1/C(=C\OC)C(=O)OC [Compound 14a] = 537
CC[C@@H]1CN2CC[C@@]34OCCO[C@@]3(Nc3ccc(Cl)c(OC)c34)[C@@H]2C[C@@H]1/C(=C\OC)C(=O)OC [Compound 12a] = 288

Shift focus to the following entry.
Quick one: Relative Potency (%) for CCC1CN2CCC3(O)c4c(ccc(F)c4OC)NC3C2CC1C(=COC)C(=O)OC (stereo not shown) ? 4571

* * *

- Test system: guinea pig ileum
- assayText: Twitch contraction induced by electrical stimulation in guinea pig isolated ileum (Magnus assay)
- conditionInfo: Cavia porcellus, read-out: Inhibitory activity (%)
So I've got a bunch of compounds here, and I need their Emax values.

Past entries and their recorded results:
CC[C@@H]1CN2CC[C@@]3(O)C(=Nc4ccc(F)c(OC)c43)[C@@H]2C[C@@H]1/C(=C\OC)C(=O)OC [Compound 22, 7-Hydroxy-10-fluoromitragynine] = 95%
CC[C@@H]1CN2CCc3c([nH]c4cccc(OC)c34)[C@@H]2C[C@@H]1/C(=C\OC)C(=O)OC [Compound 2, Mitragynine, reference compound] = 83%
CC[C@@H]1CN2CC[C@@]3(O)C(=Nc4ccc(Br)c(OC)c43)[C@@H]2C[C@@H]1/C(=C\OC)C(=O)OC [Compound 24, 7-Hydroxy-10-bromomitragynine] = 71%

List Emax for every entry below, keeping the order given.
1. CN1CC[C@]23c4c5ccc(O)c4O[C@H]2[C@@H](O)C=C[C@H]3[C@H]1C5 [Morphine, reference compound]
2. CC[C@@H]1CN2CC[C@@]34OCCO[C@@]3(Nc3ccc(F)c(OC)c34)[C@@H]2C[C@@H]1/C(=C\OC)C(=O)OC
3. CC[C@@H]1CN2CC[C@@]3(O)C(=Nc4ccc(Cl)c(OC)c43)[C@@H]2C[C@@H]1/C(=C\OC)C(=O)OC [Compound 23, 7-Hydroxy-10-chloromitragynine]

["100%", "96%", "86%"]

List Emax for every entry below, keeping the order given.
1. CC[C@@H]1CN2CC[C@@]34OCCO[C@@]3(Nc3cccc(OC)c34)[C@@H]2C[C@@H]1/C(=C\OC)C(=O)OC
2. CC[C@@H]1CN2CC[C@@]3(O)C(=Nc4cccc(OC)c43)[C@@H]2C[C@@H]1/C(=C\OC)C(=O)OC [Compound 1, 7-hydroxymitragynine, reference compound]

1: 40%; 2: 104%

* * *

- assayText: Gastrointestinal transit (charcoal meal), constipating effect after oral administration
- Format: in vivo
- conditionInfo: mouse, in vivo; oral administration, mice; (95% confidence limits); read-out: ED50 inhibitory effect on gastrointestinal transit (GIT), constipating ED50
So I've got a bunch of compounds here, and I need their ED50 values.
Numbers only, in mg/kg.

Past entries and their recorded results:
CN1CC[C@]23c4c5ccc(O)c4O[C@H]2[C@@H](O)C=C[C@H]3[C@H]1C5 [Morphine, reference compound] = 11.7
CC[C@@H]1CN2CC[C@@]34OCCO[C@@]3(Nc3ccc(F)c(OC)c34)[C@@H]2C[C@@H]1/C(=C\OC)C(=O)OC = 11.1

Quick one: ED50 for CC[C@@H]1CN2CC[C@@]3(O)C(=Nc4cccc(OC)c43)[C@@H]2C[C@@H]1/C(=C\OC)C(=O)OC [Compound 1, 7-hydroxymitragynine, reference compound] ? 7.5

* * *

- Test system: guinea pig ileum
- assayText: Twitch contraction induced by electrical stimulation in guinea pig isolated ileum (Magnus assay)
- conditionInfo: Cavia porcellus, read-out: pD2 value (−log M) (converted)
One threshold, 20 nM, splits the recorded EC50 values: lower ones are true, equal or higher ones are false.

A record lists CC[C@@H]1CN2CC[C@@]3(O)C(=Nc4ccc(Br)c(OC)c43)[C@@H]2C[C@@H]1/C(=C\OC)C(=O)OC [Compound 24, 7-Hydroxy-10-bromomitragynine] . Is its EC50 below 20 nM? false

Check "CC[C@@H]1CN2CC[C@@]34OCCO[C@@]3(Nc3ccc(F)c(OC)c34)[C@@H]2C[C@@H]1/C(=C\OC)C(=O)OC" too. true

Check CC[C@@H]1CN2CCc3c([nH]c4cccc(OC)c34)[C@@H]2C[C@@H]1/C(=C\OC)C(=O)OC [Compound 2, Mitragynine, reference compound] too. false

Check CC[C@@H]1CN2CC[C@@]3(O)C(=Nc4cccc(OC)c43)[C@@H]2C[C@@H]1/C(=C\OC)C(=O)OC [Compound 1, 7-hydroxymitragynine, reference compound] too. true

Check CC[C@@H]1CN2CC[C@@]3(O)C(=Nc4ccc(Cl)c(OC)c43)[C@@H]2C[C@@H]1/C(=C\OC)C(=O)OC [Compound 23, 7-Hydroxy-10-chloromitragynine] too. false

Check CC[C@@H]1CN2CC[C@@]3(O)C(=Nc4ccc(F)c(OC)c43)[C@@H]2C[C@@H]1/C(=C\OC)C(=O)OC [Compound 22, 7-Hydroxy-10-fluoromitragynine] too. true

* * *

- Tested on: guinea pig ileum
- assayText: Twitch contraction induced by electrical stimulation in guinea pig isolated ileum (Magnus assay)
- conditionInfo: against morphine (100)
So I've got a bunch of compounds here, and I need their Relative Potency (%) values.
Numbers only, in %.

Past entries and their recorded results:
CC[C@@H]1CN2CCc3c([nH]c4cccc(OC)c34)[C@@H]2C[C@@H]1/C(=C\OC)C(=O)OC [Compound 2, Mitragynine, reference compound] = 22
CC[C@@H]1CN2CC[C@@]3(O)C(=Nc4cccc(OC)c43)[C@@H]2C[C@@H]1/C(=C\OC)C(=O)OC [Compound 1, 7-hydroxymitragynine, reference compound] = 426

Test system guinea pig ileum; read-out Relative Potency (%); what value for "CC[C@@H]1CN2CC[C@@]34OCCO[C@@]3(Nc3cccc(OC)c34)[C@@H]2C[C@@H]1/C(=C\OC)C(=O)OC" ? 354

* * *

- System: guinea pig ileum
- assayText: Twitch contraction induced by electrical stimulation in guinea pig isolated ileum (Magnus assay)
- conditionInfo: against morphine (100)
So I've got a bunch of compounds here, and I need their Relative Potency (%) values.

Past entries and their recorded results:
CC[C@@H]1CN2CC[C@@]3(O)C(=Nc4ccc(Cl)c(OC)c43)[C@@H]2C[C@@H]1/C(=C\OC)C(=O)OC [Compound 23, 7-Hydroxy-10-chloromitragynine] = 239%
CC[C@@H]1CN2CC[C@@]3(O)C(=Nc4ccc(F)c(OC)c43)[C@@H]2C[C@@H]1/C(=C\OC)C(=O)OC [Compound 22, 7-Hydroxy-10-fluoromitragynine] = 524%

Quick one: Relative Potency (%) for CC[C@@H]1CN2CC[C@@]3(O)C(=Nc4ccc(Br)c(OC)c43)[C@@H]2C[C@@H]1/C(=C\OC)C(=O)OC [Compound 24, 7-Hydroxy-10-bromomitragynine] ? 199%
